System: Mesocricetus auratus
Assay: Oral administration at a dose of 37.5 mg/kg 30 min prior to HNE (100 mg/hamster) and reduction in the number of white blood cells was reported
Peptide text beside a SMILES is read from it.
REPORTED PROPERTY: Reduction (%)
Provide only the numeric value, understood in %.

Consider CC(C)C(NC(=O)C1CCCN1C(=O)[C@@H](NS(=O)(=O)c1ccc([N+](=O)[O-])cc1)C(C)C)C(=O)C(F)(F)F (stereo partly specified) . Its measured Reduction is -118

Consider CC(C)[C@H](NC(=O)Oc1ccc(F)cc1)C(=O)N1CCC[C@H]1C(=O)N[C@H](C(=O)C(F)(F)F)C(C)C . Its measured Reduction is -67

Consider CC(C)[C@H](NS(=O)(=O)c1ccccc1)C(=O)N1CCC[C@H]1C(=O)N[C@H](C(=O)C(F)(F)F)C(C)C . Its measured Reduction is -48

Consider CC(C)[C@H](NC(=O)c1ccccc1)C(=O)N1CCC[C@H]1C(=O)N[C@H](C(=O)C(F)(F)F)C(C)C (HELM PEPTIDE1{[O=C(c1ccccc1)[*:2]].V.P.V.[FC(F)(F)[*:1]]}$$$$V2.0) . Its measured Reduction is -7

Consider CCOC(=O)c1ccc(/C=C/C(=O)N[C@H](C(=O)N2CCCC2C(=O)NC(C(=O)C(F)(F)F)C(C)C)C(C)C)cc1 (stereo partly specified) . Its measured Reduction is -48

Consider CC(C)C(NC(=O)C1CCCN1C(=O)[C@H](C(C)C)N(CCCc1ccccc1)CCCc1ccccc1)C(=O)C(F)(F)F.Cl (stereo partly specified) . Its measured Reduction is -39

Cited source: ChEMBL document CHEMBL1130061
